Could you please report measured melting point for the items listed next?

# input So what does the record say about melting point for C/C(C(=O)N1CCN(Cc2ccc(CCOc3ccc(F)cc3)cc2)CC1)=C(/C)c1cc(C)c(Oc2ccc(OCc3ccc(C)cc3)cn2)c(Cl)c1.O=C(O)C(=O)O ?
# output 236.1 to 236.6 °C

# input And then Cc1ccc(CN2CCN(C(=O)/C=C/c3cc(C)c(Oc4ccc(OCc5ccc(Cl)cc5)cn4)c(Cl)c3)CC2)cc1.Cl , what is it?
# output 223.1 to 224 °C

# input And then Cc1ccc(COc2ccc(Oc3c(C)cc(/C=C/C(=O)N4CCN(Cc5ccc(CCOc6ccc(Cl)cc6)cc5)CC4)cc3Cl)nc2)cc1F.Cl , what is it?
# output 224.7 to 224.8 °C

# input And then Cc1ccc(COc2ccc(Oc3c(C)cc(/C=C/C(=O)N4CCN(Cc5ccc(CCOc6ccc(C)cc6)cc5)CC4)cc3Cl)nc2)cc1.Cl , what is it?
# output 232.1 to 232.7 °C

# input And then COc1cc(/C=C/C(=O)N2CCN(Cc3ccc(CCOc4ccc(C)cc4)cc3)CC2)ccc1Oc1ccc(OCc2ccccc2Cl)cn1.Cl , what is it?
# output 203.4 to 205.7 °C

# input And then Cc1cc(/C=C/C(=O)N2CCN(Cc3ccc(Oc4ccc(Cl)cc4)cc3)CC2)cc(C)c1Oc1ccc(OCc2ccc(C#N)cc2)cn1.Cl , what is it?
# output 231.9 to 233.7 °C

# input And then Cc1cc(/C=C/C(=O)N2CCN(Cc3ccc(COc4ccc(OC(C)C)cc4)cc3)CC2)cc(C)c1Oc1ccc(OCc2ccc(C#N)cc2)cn1.Cl , what is it?
# output 216.2 to 219.2 °C

# input And then Cc1ccccc1COc1ccc(Oc2c(C)cc(/C=C/C(=O)N3CCN(Cc4ccc(CCOc5ccc(F)cc5)cc4)CC3)cc2Cl)nc1.Cl , what is it?
# output 210.3 to 210.6 °C

# input And then Cc1cc(/C=C/C(=O)N2CCN(Cc3ccc(CCOc4ccc(Cl)cc4)cc3)CC2)cc(C)c1Oc1ccc(OCc2ccc(C#N)cc2)cn1.Cl , what is it?
# output 219.7 to 220.7 °C

# input And then Cc1cc(/C=C/C(=O)N2CCN(Cc3ccc(CCOc4ccc(C(C)C)cc4)cc3)CC2)cc(Cl)c1Oc1ccc(OCc2ccc(Cl)nc2)cn1.Cl , what is it?
# output 214.8 to 215.3 °C

# input And then Br.C/C(=C\C(=O)N1CCN(Cc2ccc(CCOc3ccc(C)cc3)cc2)CC1)c1cc(C)c(Oc2ccc(OCc3ccc(C)cc3)cn2)c(Cl)c1 , what is it?
# output 156.5 to 158.2 °C

# input And then Cc1cc(/C=C/C(=O)N2CCN(Cc3ccc(CCOc4ccc(F)cc4)cc3)CC2)cc(Cl)c1Oc1ccc(OCc2cccc(Cl)c2F)cn1.Cl , what is it?
# output 228.9 to 229.4 °C

Cited source for all entries: patent US8722663B2
